Measured pIC50 values are reported for all entries that follow.
# TARGET_OR_TEST_SYSTEM: Rat P2X3 receptor (Rattus norvegicus (Rat))
# TEST_DETAILS: Evaluation of rat P2X3 receptor inhibitory activity in the presence of rat serum albumin (RSA)
# Assay type: cell-based
# EXPERIMENTAL_PARAMETERS: read-out: ratP2X3 + RSA IC50
// pIC50 here means minus log10 of the molar concentration (mol/L)

• C[C@@H](Cn1c(=O)[nH]/c(=N\c2ccc(Oc3cnc(Cl)cn3)cc2)n(Cc2ccc(Cl)cc2)c1=O)C(=O)O [Compound R-014] = 8.22
• O=c1[nH]/c(=N\c2ccc(Oc3ccc(F)cn3)cc2)n(Cc2ccc(Cl)cc2)c(=O)n1[C@H]1C[C@H](C(=O)O)C1 [Compound I-019] = 7.96
• C[C@@H](Cn1c(=O)[nH]/c(=N\c2ccc(Oc3ccc(OC(F)F)cn3)cc2)n(Cc2ccc(Cl)cc2)c1=O)C(=O)O [Compound I-022] = 7.96
• Cc1ccc(Cn2c(=O)n(C[C@H](C)C(=O)O)c(=O)[nH]/c2=N\c2ccc(Oc3ccc(Cl)cn3)cc2)cc1 [Compound I-100] = 8.05

Turning now to a further compound:
(Q) Return the recorded pIC50 value; entry: C[C@@H](Cn1c(=O)[nH]/c(=N\c2ccc(Oc3cccnn3)c(F)c2)n(Cc2ccc(Cl)cc2)c1=O)C(=O)O [Compound R-037]
(A) 8.10

* * *

# TARGET_OR_TEST_SYSTEM: human P2X3 receptor (Homo sapiens (Human))
# Sequence (P56373 whole entry): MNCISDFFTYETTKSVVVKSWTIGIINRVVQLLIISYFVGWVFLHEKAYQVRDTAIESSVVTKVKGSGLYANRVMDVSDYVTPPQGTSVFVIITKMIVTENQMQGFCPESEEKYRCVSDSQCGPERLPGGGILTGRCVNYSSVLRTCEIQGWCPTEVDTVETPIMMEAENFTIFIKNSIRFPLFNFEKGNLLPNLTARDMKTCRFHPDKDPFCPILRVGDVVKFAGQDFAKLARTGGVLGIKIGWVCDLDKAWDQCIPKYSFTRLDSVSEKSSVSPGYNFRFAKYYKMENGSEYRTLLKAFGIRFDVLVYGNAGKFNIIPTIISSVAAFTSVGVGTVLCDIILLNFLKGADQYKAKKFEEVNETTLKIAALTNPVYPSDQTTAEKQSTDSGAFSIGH
# TEST_DETAILS: Evaluation of human P2X3 receptor inhibitory activity in the presence of human serum albumin (HSA)
# Assay type: cell-based
# EXPERIMENTAL_PARAMETERS: in the presence of 1% HSA (final concentration)
MEASURED_METRIC: IC50 (nM)
Give just the numeric value; nM need not be written.

(Q) Return the recorded IC50 value; entry: C[C@@H](Cn1c(=O)[nH]/c(=N\c2ccc(Oc3cc(F)ccn3)cc2)n(Cc2ccc(Cl)cc2)c1=O)C(=O)O [Compound I-070]
(A) 37

(Q) Return the recorded IC50 value; entry: C[C@@H](Cn1c(=O)[nH]/c(=N\c2ccc(Oc3ccnc(C#N)c3)cc2)n(Cc2ccc(Cl)cc2)c1=O)C(=O)O [Compound R-123]
(A) 18

(Q) Return the recorded IC50 value; entry: Cc1ccc(Cn2c(=O)n(C[C@H](C)C(=O)O)c(=O)[nH]/c2=N\c2ccc(Oc3ncccc3F)cc2)cc1 [Compound I-056]
(A) 23

(Q) Return the recorded IC50 value; entry: O=c1[nH]/c(=N\c2ccc(Oc3ccc(F)cn3)cc2)n(Cc2ccc(Cl)cc2)c(=O)n1[C@H]1C[C@H](C(=O)O)C1 [Compound I-019]
(A) 68

(Q) Return the recorded IC50 value; entry: COc1ccc(Oc2ccc(/N=c3\[nH]c(=O)n(C[C@H](C)C(=O)O)c(=O)n3Cc3ccc(Cl)cc3)cc2)nc1 [Compound I-079]
(A) 37

(Q) Return the recorded IC50 value; entry: Cc1ccc(Cn2c(=O)n(C[C@H](C)C(=O)O)c(=O)[nH]/c2=N\c2ccc(Oc3ccc(F)cn3)cc2)cc1 [Compound I-040]
(A) 18

* * *

Measured pIC50 values are reported for all entries that follow.
# TARGET_OR_TEST_SYSTEM: Rat P2X3 receptor (Rattus norvegicus (Rat), UniProt P49654)
# Sequence (P49654 whole entry): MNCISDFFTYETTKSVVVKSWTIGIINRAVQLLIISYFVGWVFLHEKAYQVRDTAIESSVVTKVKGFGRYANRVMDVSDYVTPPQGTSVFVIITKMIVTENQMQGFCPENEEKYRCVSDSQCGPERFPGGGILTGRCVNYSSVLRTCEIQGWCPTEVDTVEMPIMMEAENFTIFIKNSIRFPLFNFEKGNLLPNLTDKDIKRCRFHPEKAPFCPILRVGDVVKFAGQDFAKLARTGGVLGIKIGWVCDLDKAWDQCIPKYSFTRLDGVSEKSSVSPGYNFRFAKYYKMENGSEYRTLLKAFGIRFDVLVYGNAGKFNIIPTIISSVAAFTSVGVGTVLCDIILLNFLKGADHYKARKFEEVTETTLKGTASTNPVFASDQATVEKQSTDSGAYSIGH
# TEST_DETAILS: Evaluation of rat P2X3 receptor inhibitory activity in the presence of rat serum albumin (RSA)
# EXPERIMENTAL_PARAMETERS: read-out: ratP2X3 + RSA IC50
// pIC50 here means minus log10 of the molar concentration (mol/L)

Solved entries:
• C[C@@H](Cn1c(=O)[nH]/c(=N\c2ccc(Oc3cnccn3)cc2)n(Cc2ccc(Cl)cc2)c1=O)C(=O)O [Compound R-019] = 8.10
• Cc1ccc(Cn2c(=O)n(C[C@H](C)C(=O)O)c(=O)[nH]/c2=N\c2ccc(Oc3ccc(F)cn3)cc2)cc1 [Compound I-040] = 8.05

(Q) Return the recorded pIC50 value; entry: Cc1ccc(Cn2c(=O)n([C@@H](C)[C@@H](C)C(=O)O)c(=O)[nH]/c2=N\c2ccc(Oc3ccc(C)cn3)cc2)cc1 [Compound I-113]
(A) 8.00
